tested on: CCRF-CEM; test: Effect on Bcl-XL expression in vincristine-resistant human CEM cells at 5 uM measured after 24 hrs by Western blot analysis; type: functional, cell-based
The source made the active and inactive calls. No cut-off for these calls is given here.

molecule	Activity
COc1cc2c3cc1Oc1c(OC)c(OC)cc4c1C(Cc1ccc(OC(F)(F)F)c(c1)Oc1ccc(cc1)CC3N(C)CC2)N(C)CC4 (racemic; form 1)	inactive
COc1cc2c3cc1Oc1c(OC)c(OC)cc4c1C(Cc1cc(cs1)Oc1ccc(cc1)CC3N(C)CC2)N(C)CC4 (racemic; form 1)	inactive
COc1cc2c3cc1Oc1c(OC)c(OC)cc4c1C(CCCCOc1ccc(cc1)CC3N(C)CC2)N(C)CC4 (racemic)	inactive
COc1ccc2cc1Oc1ccc(cc1)C[C@H]1c3cc(c(OC)cc3CCN1C)Oc1c(OC)c(OC)cc3c1[C@H](C2)N(C)CC3	inactive
COc1cc2c3cc1Oc1c(OC)c(OC)cc4c1C(Cc1ccc(Cl)c(c1)Oc1ccc(cc1)CC3N(C)CC2)N(C)CC4 (racemic)	inactive
COc1cc2c3cc1Oc1c(OC)c(OC)cc4c1C(Cc1ccc(OC(F)(F)F)c(c1)Oc1ccc(cc1)CC3N(C)CC2)N(C)CC4 (racemic; form 2)	inactive
COc1cc2c3cc1Oc1c(OC)c(OC)cc4c1C(Cc1cccc(c1)Oc1ccc(cc1)CC3N(C)CC2)N(C)CC4 (racemic; form 1)	inactive
COc1cc2c3cc1Oc1c(OC)c(OC)cc4c1C(Cc1cccc(c1)Oc1ccc(cc1)CC3N(C)CC2)N(C)CC4 (racemic; form 2)	inactive
COc1cc2c3cc1Oc1c(OC)c(OC)cc4c1C(Cc1ccc(Cl)c(c1)Oc1ccc(cc1)CC3N(C)CC2)N(C)CC4 (mixture of isomers)	inactive
COc1cc2c3cc1Oc1c(OC)c(OC)cc4c1C(CCCCOc1ccc(cc1)CC3N(C)CC2)N(C)CC4 (single isomer, unassigned; diastereomer 2)	inactive
COc1cc2c3cc1Oc1c(OC)c(OC)cc4c1C(Cc1cc(cs1)Oc1ccc(cc1)CC3N(C)CC2)N(C)CC4 (racemic; form 2)	inactive

###

test system: CCRF-CEM; assay: Effect on MCL1 expression in vincristine-resistant human CEM cells at 5 uM measured after 24 hrs by Western blot analysis; assay type: functional, cell-based
Calls of active or inactive are those of the source. The rule behind the calls is not given here.

molecule	Activity
COc1ccc2cc1Oc1ccc(cc1)C[C@H]1c3cc(c(OC)cc3CCN1C)Oc1c(OC)c(OC)cc3c1[C@H](C2)N(C)CC3	inactive
COc1cc2c3cc1Oc1c(OC)c(OC)cc4c1C(Cc1cc(cs1)Oc1ccc(cc1)CC3N(C)CC2)N(C)CC4 (racemic; form 1)	inactive
COc1cc2c3cc1Oc1c(OC)c(OC)cc4c1C(Cc1ccc(Cl)c(c1)Oc1ccc(cc1)CC3N(C)CC2)N(C)CC4 (racemic)	inactive
COc1cc2c3cc1Oc1c(OC)c(OC)cc4c1C(Cc1ccc(OC(F)(F)F)c(c1)Oc1ccc(cc1)CC3N(C)CC2)N(C)CC4 (racemic; form 1)	inactive
COc1cc2c3cc1Oc1c(OC)c(OC)cc4c1C(CCCCOc1ccc(cc1)CC3N(C)CC2)N(C)CC4 (racemic)	inactive
